Biological target: particulate guanylyl cyclase receptor A (pGC-A) (Homo sapiens)
Construct: expressed in transfected cells; host or cells: HEK293
Assay: cGMP production by HTRF in HEK293 cells overexpressing pGC-A, with ANP
Type: cell-based
Settings: HEK293, HEK293 cells overexpressing pGC-A; cGMP normalized to maximal amount produced by an EC80 concentration of ANP; read-out: Max efficacy
Assign class by Emax: not lower than 80% means Met; lower than 80% means Not met.

molecule	class
CN(C)CCN1CCCC(C(=O)Nc2nc3c(F)cc(Cl)cc3s2)C1 (stereo not drawn)	Met
O=C(Nc1nc2c(F)cc(F)cc2s1)C1CCCN(CCN2CCCC2C(=O)O)C1 (stereo not drawn)	Not met
Nc1cc(N2CCCC(C(=O)Nc3nc4c(F)cc(F)cc4s3)C2)ccn1 (stereo not drawn)	Met
O=C(Nc1nc2c(Cl)cc(F)cc2s1)C1CCCN(c2ccncc2)C1 (stereo not drawn)	Not met

* * *

Target: particulate guanylyl cyclase receptor A (pGC-A) (Homo sapiens, UniProt P16066)
Sequence (P16066 33-1061): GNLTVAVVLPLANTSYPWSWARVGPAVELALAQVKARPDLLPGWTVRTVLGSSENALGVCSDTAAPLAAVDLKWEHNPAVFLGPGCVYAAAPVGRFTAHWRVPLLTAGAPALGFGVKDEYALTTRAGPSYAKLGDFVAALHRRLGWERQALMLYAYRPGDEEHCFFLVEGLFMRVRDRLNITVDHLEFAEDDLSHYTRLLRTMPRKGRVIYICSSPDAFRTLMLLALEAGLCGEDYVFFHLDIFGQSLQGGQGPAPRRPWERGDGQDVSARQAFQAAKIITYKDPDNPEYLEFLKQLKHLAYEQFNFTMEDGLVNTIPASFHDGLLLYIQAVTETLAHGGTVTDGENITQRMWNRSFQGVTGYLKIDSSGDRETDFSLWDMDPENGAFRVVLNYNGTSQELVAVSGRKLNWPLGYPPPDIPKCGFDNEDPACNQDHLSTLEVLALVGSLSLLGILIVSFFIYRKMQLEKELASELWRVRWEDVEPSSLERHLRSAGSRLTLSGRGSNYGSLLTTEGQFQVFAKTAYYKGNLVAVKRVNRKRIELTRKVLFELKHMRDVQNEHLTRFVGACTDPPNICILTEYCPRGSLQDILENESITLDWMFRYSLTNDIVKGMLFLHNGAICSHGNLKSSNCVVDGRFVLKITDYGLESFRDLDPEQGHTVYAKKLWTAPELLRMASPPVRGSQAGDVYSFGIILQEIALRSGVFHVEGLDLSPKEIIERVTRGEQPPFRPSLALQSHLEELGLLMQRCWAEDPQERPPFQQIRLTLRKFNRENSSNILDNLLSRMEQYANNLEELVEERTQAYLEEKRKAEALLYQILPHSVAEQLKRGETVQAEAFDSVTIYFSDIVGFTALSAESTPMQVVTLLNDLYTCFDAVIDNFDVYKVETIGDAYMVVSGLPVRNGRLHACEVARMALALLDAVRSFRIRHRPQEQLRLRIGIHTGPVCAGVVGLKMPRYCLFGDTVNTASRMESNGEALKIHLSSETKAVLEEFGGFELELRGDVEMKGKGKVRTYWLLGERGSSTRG
Sequence (P01160 124-151 partner limits assumed): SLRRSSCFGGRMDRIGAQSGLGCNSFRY
Assay: cGMP production by HTRF in HEK293 cells overexpressing pGC-A, with ANP
Conditions: HEK293 cells overexpressing pGC-A; test compound plus EC20 concentration of ANP; cGMP by HTRF

compound	EC50
Cc1ccc2nc(NC(=O)C3CCCN(CCN(C)C)C3)sc2c1 (stereo not drawn)	> 10 µM
O=C(Nc1nc2c(F)cc(F)cc2s1)C1CCCN(C(=O)NCc2ccccc2)C1 (stereo not drawn)	> 5 µM
COc1cccc(C(=O)Nc2nc3c(F)cc(F)cc3s2)c1	> 10 µM
COc1cccc2sc(NC(=O)C3CCCN(CCN(C)C)C3)nc12 (stereo not drawn)	> 10 µM
O=C(Nc1nc2c(F)cc(F)cc2s1)C1CNCCN1C(=O)OCc1ccccc1 (stereo not drawn)	> 5 µM
O=C(Nc1nc2c(Cl)cc(F)cc2s1)C1CCCN(c2ccnc3ccccc23)C1 (stereo not drawn)	> 5 µM
O=C(Nc1nc2c(F)cc(F)cc2s1)c1ccc(Cl)cc1	> 10 µM
CN(C)CCN1CCCC(C(=O)Nc2nc(-c3ccc(F)cc3)cs2)C1 (stereo not drawn)	> 5 µM
CN(C)CCN1CC(O)CC(C(=O)Nc2nc3c(F)cc(F)cc3s2)C1 (stereo not drawn)	0.4 µM

* * *

Target: particulate guanylyl cyclase receptor A (pGC-A) (Homo sapiens, UniProt P16066)
Construct: expressed in transfected cells; host or cells: HEK293
Experiment: cGMP production by HTRF in HEK293 cells overexpressing pGC-A, with ANP
Type: cell-based
Conditions: HEK293, HEK293 cells overexpressing pGC-A; cGMP normalized to maximal amount produced by an EC80 concentration of ANP; read-out: Max efficacy
experimentalReadout: Emax (%)

compound	experimentalReadout	measuredNumber
O=C(Nc1nc2c(F)cc(F)cc2s1)C1CCCN(CCn2ccnc2)C1 (stereo not shown) [compound 068]	Emax	89
CN(C)CCN1CCCCC1C(=O)Nc1nc2c(F)cc(F)cc2s1 (stereo not shown) [compound 037]	Emax	96
Cc1cncnc1N1CCCC(C(=O)Nc2nc3c(F)cc(F)cc3s2)C1 (stereo not shown) [compound 111]	Emax	65
CN(C)C(=O)CN1CCCC(C(=O)Nc2nc3c(F)cc(F)cc3s2)C1 (stereo not shown) [compound 229]	Emax	91
CC1C(N2CCCC(C(=O)Nc3nc4c(Cl)cc(F)cc4s3)C2)CN1C (stereo not shown) [compound 130]	Emax	94
CN(C)c1ccc(N2CCCC(C(=O)Nc3nc4c(F)cc(F)cc4s3)C2)cc1 (stereo not shown) [compound 066]	Emax	77
COCCN1CCC(N2CCCC(C(=O)Nc3nc4c(F)cc(F)cc4s3)C2)C1 (stereo not shown) [compound 093]	Emax	86
O=C(Nc1nc2c(F)cc(F)cc2s1)C12CCC(CC1)NC2 [compound 062]	Emax	92
CC(=O)N1CC(N2CCCC(C(=O)Nc3nc4c(Cl)cc(F)cc4s3)C2)C1 (stereo not shown) [compound 138]	Emax	46
O=C(Nc1nc2c(F)cc(F)cc2s1)C1CNCC(O)C1 (stereo not shown) [compound 263]	Emax	45
CN(CCO)CCN1CCCC(C(=O)Nc2nc3c(F)cc(F)cc3s2)C1 (stereo not shown) [compound 242]	Emax	105
CN(C)C1CCN(CC(=O)Nc2nc3c(F)cc(F)cc3s2)CC1 [compound 219]	Emax	91
O=C(Nc1nc2c(F)cc(F)cc2s1)C1CCCN(c2ccncc2F)C1 (stereo not shown) [compound 112]	Emax	97
O=C(Nc1nc2c(F)cc(F)cc2s1)C1CCCN(c2ccnc(F)c2)C1 (stereo not shown) [compound 106]	Emax	101
CC(C)NC(=O)N1CCCC(C(=O)Nc2nc3c(F)cc(F)cc3s2)C1 (stereo not shown) [compound 278]	Emax	70
O=C(Nc1nc2c(Br)cccc2s1)C1CCCN(C2CCNC2)C1 (stereo not shown) [compound 101]	Emax	84
O=C(Nc1nc2c(F)cc(F)cc2s1)C1CCCN(Cc2ccncc2)C1 (stereo not shown) [compound 110]	Emax	95
O=C(Nc1nc2c(F)cc(F)cc2s1)C1CCCN(CCN2CCCC2)C1 (stereo not shown) [compound 239]	Emax	87
O=C(Nc1nc2c(F)cc(F)cc2[nH]1)C1CCCNC1 (stereo not shown) [249b]	Emax	72
